Entries below carry reported AC50 on Cytochrome P450 1A2 (Homo sapiens).
Sequence (P05177 whole entry): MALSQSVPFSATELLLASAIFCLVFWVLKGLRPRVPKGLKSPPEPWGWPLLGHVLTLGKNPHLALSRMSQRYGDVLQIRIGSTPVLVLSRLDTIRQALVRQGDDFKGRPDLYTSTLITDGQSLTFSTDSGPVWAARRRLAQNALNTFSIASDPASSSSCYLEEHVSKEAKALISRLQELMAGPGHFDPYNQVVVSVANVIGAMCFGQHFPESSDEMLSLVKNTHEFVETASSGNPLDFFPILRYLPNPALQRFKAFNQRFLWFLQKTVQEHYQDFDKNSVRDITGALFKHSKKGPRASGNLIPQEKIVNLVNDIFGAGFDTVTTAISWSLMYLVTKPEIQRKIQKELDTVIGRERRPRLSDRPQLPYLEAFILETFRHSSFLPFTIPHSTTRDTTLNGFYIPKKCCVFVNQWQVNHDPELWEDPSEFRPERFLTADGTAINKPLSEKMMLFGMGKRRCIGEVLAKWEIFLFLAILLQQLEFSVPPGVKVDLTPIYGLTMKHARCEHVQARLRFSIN
ENDPOINT LABEL: AC50

INSERT INTO measurements (compound, assay_system, endpoint_label, measured_result) VALUES
  ('COc1cc(/C=N/NC(N)=O)c(Br)cc1OCC(=O)Nc1ccccc1C', 'Cytochrome P450 1A2 (Homo sapiens)', 'AC50', '14.1 µM (inconclusive)'),
  ('Cc1ccc(S(=O)(=O)c2cc3ccccc3o/c2=N\c2ccc3c(c2)OCO3)cc1', 'Cytochrome P450 1A2 (Homo sapiens)', 'AC50', '2.82 µM (inconclusive)'),
  ('CC1=C(C(=O)OCc2ccccc2)C(c2ccc3ccccc3c2)NC(=O)N1CCCCCC(=O)O (stereo unspecified)', 'Cytochrome P450 1A2 (Homo sapiens)', 'AC50', '20 µM (inconclusive)'),
  ('COC(=O)c1ccccc1NC(=O)C(CCS(C)(=O)=O)NC(C)=O (stereo unspecified)', 'Cytochrome P450 1A2 (Homo sapiens)', 'AC50', '20 µM (inconclusive)'),
  ('COc1ccc(C2=NOC(C(=O)NCCN3CCOCC3)C2)cc1 (stereo unspecified)', 'Cytochrome P450 1A2 (Homo sapiens)', 'AC50', '31.6 µM (inconclusive)'),
  ('CCOC(=O)c1ccc(-c2ccc(/C=C(\C#N)C(=O)NCC3CCCO3)o2)cc1 (stereo unspecified)', 'Cytochrome P450 1A2 (Homo sapiens)', 'AC50', '4.47 µM (inconclusive)'),
  ('CCNc1ncc2nc(-c3ccc(F)cc3)c(=O)n(CCOC)c2n1', 'Cytochrome P450 1A2 (Homo sapiens)', 'AC50', '2 µM (inconclusive)'),
  ('NC1(C(=O)O)CCC1', 'Cytochrome P450 1A2 (Homo sapiens)', 'AC50', '39.8 µM (inconclusive)'),
  ('O=C(c1ccco1)N1CCC2(CCN(Cc3ccncc3)CC2)CC1', 'Cytochrome P450 1A2 (Homo sapiens)', 'AC50', '20 µM (inconclusive)'),
  ('CCN(CC)CCOc1ccc2nc(N(C)C)sc2c1', 'Cytochrome P450 1A2 (Homo sapiens)', 'AC50', '15.8 µM (inconclusive)'),
  ('CCOC(=O)C1=C(COc2ccc(F)cc2Cl)NC(=O)NC1c1cc(C)ccc1C (stereo unspecified)', 'Cytochrome P450 1A2 (Homo sapiens)', 'AC50', '17.8 µM (inconclusive)');

====

- ASSAY SYSTEM: Carboxy-terminal domain RNA polymerase II polypeptide A small phosphatase 1 (Homo sapiens, UniProt Q9GZU7)
- Sequence (Q9GZU7 whole entry): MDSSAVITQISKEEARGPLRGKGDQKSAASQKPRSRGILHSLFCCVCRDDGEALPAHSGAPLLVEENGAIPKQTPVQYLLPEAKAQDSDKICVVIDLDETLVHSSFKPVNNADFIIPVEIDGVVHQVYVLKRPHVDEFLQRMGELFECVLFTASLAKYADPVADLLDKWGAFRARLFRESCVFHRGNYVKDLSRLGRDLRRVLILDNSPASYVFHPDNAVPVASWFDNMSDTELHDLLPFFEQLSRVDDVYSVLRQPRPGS
- ASSAY EXPLANATION: CTDSP1 inhibitors, concentration-response, biochemical, absorbance readout, ultra-high-throughput screen actives (AID 540297)
- Type: functional
Activity calls are given as the source filed them.
ENDPOINT LABEL: IC50

INSERT INTO measurements (molecule, measured_result) VALUES
  ('O=C(CSc1nc(-c2ccccc2)nc2ccc(F)cc12)Nc1cccc(C(=O)O)c1', '6.6 µM (active)'),
  ('CC1CCc2c(sc(NC(=O)c3ccc(Cn4cc([N+](=O)[O-])cn4)o3)c2C#N)C1 (stereo not given)', '4.29 µM (active)'),
  ('Cc1cccc(N2CCN(C(=O)c3ccc(S(=O)(=O)N(C)c4ccccc4)cc3)CC2)c1C', '12 µM (active)'),
  ('O=C(O)C1C2C=CC(C2)C1C(=O)Nc1ccccc1Br (stereo not given)', '16.7 µM (active)'),
  ('CCCCNC(=O)COC(=O)c1c2c(nc3ccccc13)CCC2', '9.63 µM (active)');

====

The entries below are paired with their reported AC50.
- ASSAY SYSTEM: Replicative DNA helicase DnaB (Mycobacterium tuberculosis)
- Sequence (P9WMR3 whole entry): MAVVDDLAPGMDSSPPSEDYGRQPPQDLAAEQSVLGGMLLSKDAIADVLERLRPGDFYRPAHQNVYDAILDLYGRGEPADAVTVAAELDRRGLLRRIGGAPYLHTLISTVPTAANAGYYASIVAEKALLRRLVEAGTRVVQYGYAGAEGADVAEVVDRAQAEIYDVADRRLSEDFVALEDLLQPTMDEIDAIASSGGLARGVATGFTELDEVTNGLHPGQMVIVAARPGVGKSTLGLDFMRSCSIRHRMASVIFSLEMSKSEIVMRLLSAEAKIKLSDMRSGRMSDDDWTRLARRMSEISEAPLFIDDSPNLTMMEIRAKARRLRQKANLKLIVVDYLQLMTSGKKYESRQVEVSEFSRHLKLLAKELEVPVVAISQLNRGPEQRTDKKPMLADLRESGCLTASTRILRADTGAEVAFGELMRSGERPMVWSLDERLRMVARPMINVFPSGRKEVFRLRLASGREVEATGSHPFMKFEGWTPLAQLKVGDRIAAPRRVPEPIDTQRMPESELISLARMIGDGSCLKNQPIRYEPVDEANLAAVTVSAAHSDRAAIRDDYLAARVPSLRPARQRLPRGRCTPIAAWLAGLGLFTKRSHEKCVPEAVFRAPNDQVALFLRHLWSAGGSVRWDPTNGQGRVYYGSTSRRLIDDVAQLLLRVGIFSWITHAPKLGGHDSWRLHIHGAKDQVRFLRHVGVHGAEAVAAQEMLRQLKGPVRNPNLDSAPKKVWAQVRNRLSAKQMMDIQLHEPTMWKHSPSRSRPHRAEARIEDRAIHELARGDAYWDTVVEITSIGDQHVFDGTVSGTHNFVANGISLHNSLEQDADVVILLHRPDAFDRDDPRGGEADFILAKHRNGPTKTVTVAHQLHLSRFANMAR
- ASSAY EXPLANATION: DnaB intein splicing inhibitors, dose response, biochemical, cell-free fluorescence (AID 449749)
- Assay type: functional
Active and inactive are the calls of the source.
ENDPOINT LABEL: AC50

INSERT INTO assay_data (smiles_structure, measured_result) VALUES
  ('C/C(CC(=O)Nc1cc(C)ccn1)=N\NC(=O)c1ccncc1', '7.32 µM (active)'),
  ('COc1cc(C(=O)NCC(=O)N/N=C/c2cccc(OC(=O)c3ccco3)c2)cc(OC)c1OC', '36 µM (active)'),
  ('Cc1cc(C)n2nc(CNS(=O)(=O)c3c(F)c(F)c(F)c(F)c3F)nc2n1', '38.5 µM (active)');

====

Each entry below carries its recorded EC50.
- ASSAY SYSTEM: Endoribonuclease toxin MazF (Escherichia coli K-12, UniProt P0AE70)
- Sequence (P0AE70 whole entry): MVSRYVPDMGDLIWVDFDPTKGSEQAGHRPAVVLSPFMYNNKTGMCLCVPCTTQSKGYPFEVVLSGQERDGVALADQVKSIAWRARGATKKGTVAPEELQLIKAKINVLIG
- ASSAY EXPLANATION: activation of MazEF endoribonuclease cleavage – biochemical, fluorescence, single-stranded RNA substrate, uHTS hits, dose response (AID 588481)
- Type: functional
Active and inactive are the calls of the source.
ENDPOINT LABEL: EC50

INSERT INTO measurements (compound, assay_system, measured_result) VALUES
  ('COc1cccc(C2=CC(c3ccc(N(C)C)cc3)n3nnnc3N2)c1 (centres undefined)', 'Endoribonuclease toxin MazF (Escherichia coli K-12, UniProt P0AE70)', '> 99 µM (inactive)'),
  ('COc1ccc(OC)c(/C=C2\N=C(c3ccccc3)OC2=O)c1', 'Endoribonuclease toxin MazF (Escherichia coli K-12, UniProt P0AE70)', '> 99 µM (inactive)'),
  ('CSC1=N/C(=C\c2ccc(C)s2)C(=O)S1', 'Endoribonuclease toxin MazF (Escherichia coli K-12, UniProt P0AE70)', '89.7 µM (inactive)'),
  ('CCC(C)NC(=O)c1ccc(CNS(=O)(=O)c2ccc3c(c2)C(C)(C)C(=O)N3C)cc1 (centres undefined)', 'Endoribonuclease toxin MazF (Escherichia coli K-12, UniProt P0AE70)', '15.9 µM (active)');

====

- System: Streptococcus sp. 'group A'
- ASSAY EXPLANATION: Streptococcus pyogenes SK(-)GAS viability under kanamycin – luminescence, BacTiterGlo, confirmation, counter-screen for streptokinase expression inhibitor project, dose response (AID 1900)
- Assay type: functional, organism-based
Active and inactive are the calls of the source.
Form field: EC50 (one value per entry).
ENDPOINT LABEL: EC50

INSERT INTO results (molecule, assay_system, measured_result) VALUES
  ('COc1ccc(C)cc1NC(=O)NC1CCCc2ccccc21 (stereo not drawn)', 'Streptococcus sp. ''group A''', '> 150 µM (not active)'),
  ('Cc1cccc(CCNC(=O)CC2C(=O)NCCN2Cc2ccccc2C)n1 (stereo not drawn)', 'Streptococcus sp. ''group A''', '> 150 µM (not active)'),
  ('Cn1c(-c2c(N)n(C3CCCC3)c3nc4ccccc4nc23)nc2ccccc21', 'Streptococcus sp. ''group A''', '0.391 µM (active)'),
  ('CCc1ccccc1NC(=O)NC(C)c1ccc2c(c1)OCO2 (stereo not drawn)', 'Streptococcus sp. ''group A''', '> 150 µM (not active)'),
  ('CNC[C@H](Cc1ccccc1)NC[C@@H](Cc1cccc2ccccc12)NCCc1ccc(C)cc1', 'Streptococcus sp. ''group A''', '4.79 µM (active)'),
  ('O=C(Nc1cccc(Cl)c1)Nc1cc(S(=O)(=O)N2CCCCC2)ccc1Cl', 'Streptococcus sp. ''group A''', '11.8 µM (active)'),
  ('CCOC(=O)c1sc(NC(=O)CNCc2ccccn2)c(C(=O)OCC)c1C', 'Streptococcus sp. ''group A''', '0.195 µM (active)'),
  ('CCCC(=O)NC(c1ccc(Cl)cc1Cl)c1ccc2cccnc2c1O (stereo not drawn)', 'Streptococcus sp. ''group A''', '1.01 µM (active)');

Reference source for all entries: ChEMBL document CHEMBL1201862
